- studyTarget: GTPase KRas (G12D) and Son of Sevenless Homolog 1 (SOS) (Homo sapiens, UniProt P01116, G12D)
- Sequence (P01116 whole entry G12D): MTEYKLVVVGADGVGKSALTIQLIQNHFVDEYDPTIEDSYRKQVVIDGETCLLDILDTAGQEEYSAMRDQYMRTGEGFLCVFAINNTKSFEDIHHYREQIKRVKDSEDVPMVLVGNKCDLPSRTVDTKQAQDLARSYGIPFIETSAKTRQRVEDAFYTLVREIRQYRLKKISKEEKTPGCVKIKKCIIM
- Sequence (Q07889 whole entry, further chain): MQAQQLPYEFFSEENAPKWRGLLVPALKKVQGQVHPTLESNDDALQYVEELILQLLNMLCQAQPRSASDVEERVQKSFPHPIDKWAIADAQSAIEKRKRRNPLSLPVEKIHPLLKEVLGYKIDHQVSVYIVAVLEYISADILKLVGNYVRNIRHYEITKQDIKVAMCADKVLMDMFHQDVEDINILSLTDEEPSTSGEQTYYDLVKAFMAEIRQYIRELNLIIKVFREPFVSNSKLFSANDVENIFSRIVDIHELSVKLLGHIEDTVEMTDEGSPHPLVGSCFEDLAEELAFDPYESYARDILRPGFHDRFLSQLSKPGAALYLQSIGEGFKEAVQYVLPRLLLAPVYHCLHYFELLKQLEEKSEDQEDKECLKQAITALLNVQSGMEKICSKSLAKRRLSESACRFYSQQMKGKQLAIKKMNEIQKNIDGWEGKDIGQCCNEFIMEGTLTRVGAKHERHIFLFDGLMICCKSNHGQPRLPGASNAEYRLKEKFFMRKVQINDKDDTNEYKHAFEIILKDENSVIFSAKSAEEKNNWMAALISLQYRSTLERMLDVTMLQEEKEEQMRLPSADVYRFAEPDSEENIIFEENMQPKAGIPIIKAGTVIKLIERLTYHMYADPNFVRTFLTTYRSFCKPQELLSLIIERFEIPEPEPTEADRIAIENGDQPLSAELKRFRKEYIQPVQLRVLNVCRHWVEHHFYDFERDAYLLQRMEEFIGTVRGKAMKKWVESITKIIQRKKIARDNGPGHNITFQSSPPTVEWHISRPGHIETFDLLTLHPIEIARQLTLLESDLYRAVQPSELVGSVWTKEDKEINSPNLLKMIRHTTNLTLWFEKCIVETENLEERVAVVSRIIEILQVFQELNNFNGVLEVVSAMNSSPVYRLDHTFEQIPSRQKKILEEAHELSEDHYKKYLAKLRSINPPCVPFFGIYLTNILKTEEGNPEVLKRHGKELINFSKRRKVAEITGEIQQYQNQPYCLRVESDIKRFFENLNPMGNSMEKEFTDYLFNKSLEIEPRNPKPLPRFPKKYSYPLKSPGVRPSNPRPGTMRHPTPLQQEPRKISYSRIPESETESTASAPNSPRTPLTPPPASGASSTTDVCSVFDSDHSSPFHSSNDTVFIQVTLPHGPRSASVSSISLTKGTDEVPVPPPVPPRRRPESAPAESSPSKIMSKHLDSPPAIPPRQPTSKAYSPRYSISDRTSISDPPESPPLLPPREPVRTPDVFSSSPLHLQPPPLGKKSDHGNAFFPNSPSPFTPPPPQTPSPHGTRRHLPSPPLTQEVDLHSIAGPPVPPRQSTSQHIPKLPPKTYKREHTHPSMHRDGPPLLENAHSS
- method: AlphaScreen Assay
Numbered stars: 1 amine (or outer) side, 2 acyl side, 3 side chain; on linkers, the order of the positions; unused ones are H or OH. Bridge positions count the residues as written; N and C are the ends. Square brackets hold non-standard residues; d marks the D form. Peptide text beside a SMILES is read from it. * marks the point of attachment. hPhe(3-Cl-4-CF3) = N[C@@H](CCc1ccc(C(F)(F)F)c(Cl)c1)C(=O)O; hPhe(3-F,4-CF3) = N[C@@H](CCc1ccc(C(F)(F)F)c(F)c1)C(=O)O; X123 = O=C([C@@H]1C[C@H](n2ccnn2)CN1[*:1])[*:2]; NMeAla(cPent) = CN[C@@H](CC1CCCC1)C(=O)O; NMeCha = CN[C@@H](CC1CCCCC1)C(=O)O; cisHyp = O=C(O)[C@@H]1C[C@H](O)CN1; NMeD = CN[C@@H](CC(=O)O)C(=O)O; NMeL = CN[C@@H](CC(C)C)C(=O)O; NMeV = CN[C@H](C(=O)O)C(C)C; Piperidide = C1CCN(*)CC1; Ac5c = NC1(C(=O)O)CCCC1; Sar = CNCC(=O)O
measureName: pIC50
In simple prose, pIC50 is minus the logarithm base ten of a concentration in moles per litre.

CC[C@H](C)[C@@H]1NC(=O)[C@H](CC(C)C)N(C)C(=O)C[C@@H](C(=O)N2CCCCC2)N(C)C(=O)[C@H](CC(C)C)N(C)C(=O)C2(CCCC2)NC(=O)[C@@H]2C[C@H](O)CN2C(=O)[C@H](CCc2ccc(C(F)(F)F)c(F)c2)NC(=O)CN(C)C(=O)[C@H](CC2CCCCC2)N(C)C(=O)CN(C)C(=O)CN(C)C1=O [US20240148821, Compound 544] ([NMeL]I[Sar][Sar][NMeCha][Sar][hPhe(3-F,4-CF3)][cisHyp][Ac5c][NMeL][NMeD]-Piperidide; lactam N-11) :: 8.66

State its pIC50 for this molecule: CC[C@H](C)[C@@H]1NC(=O)[C@H](CC(C)C)N(C)C(=O)C[C@@H](C(=O)N2CCCCC2)N(C)C(=O)[C@H](C(C)C)N(C)C(=O)C2(CCCC2)NC(=O)[C@@H]2C[C@H](n3ccnn3)CN2C(=O)[C@H](CCc2ccc(C(F)(F)F)c(Cl)c2)NC(=O)CN(C)C(=O)[C@H](CC2CCCC2)N(C)C(=O)CN(C)C(=O)CN(C)C1=O [US20240148821, Compound 2115] ([NMeL]I[Sar][Sar][NMeAla(cPent)][Sar][hPhe(3-Cl-4-CF3)][X123][Ac5c][NMeV][NMeD]-Piperidide; lactam N-11)
8.96

----------
- studyTarget: GTPase KRas (G12D) and Son of Sevenless Homolog 1 (SOS) (Homo sapiens, UniProt P01116, G12D)
- method: AlphaScreen Assay
Bridge positions count the residues as written; N and C are the ends. Square brackets hold non-standard residues; d marks the D form. Peptide text beside a SMILES is read from it. * marks the point of attachment. hPhe(3-F,4-CF3) = N[C@@H](CCc1ccc(C(F)(F)F)c(F)c1)C(=O)O; NMeCha = CN[C@@H](CC1CCCCC1)C(=O)O; cisHyp = O=C(O)[C@@H]1C[C@H](O)CN1; Hyp = O=C(O)[C@@H]1C[C@@H](O)CN1; NMeD = CN[C@@H](CC(=O)O)C(=O)O; NMeL = CN[C@@H](CC(C)C)C(=O)O; Piperidide = C1CCN(*)CC1; Ac5c = NC1(C(=O)O)CCCC1; X106 = Clc1cccc(C*)c1; X94 = COc1cccc(C*)c1; Sar = CNCC(=O)O
measureName: pIC50
In simple prose, pIC50 is minus the logarithm base ten of a concentration in moles per litre.

CC[C@H](C)[C@@H]1NC(=O)[C@H](CC(C)C)N(C)C(=O)C[C@@H](C(=O)N2CCCCC2)N(C)C(=O)[C@H](CC(C)C)N(C)C(=O)C2(CCCC2)NC(=O)[C@@H]2C[C@H](OCc3cccc(Cl)c3)CN2C(=O)[C@H](CCc2ccc(C(F)(F)F)c(F)c2)NC(=O)CN(C)C(=O)[C@H](CC2CCCCC2)N(C)C(=O)CN(C)C(=O)CN(C)C1=O [US20240148821, Compound 2126] ([NMeL]I[Sar][Sar][NMeCha][Sar][hPhe(3-F,4-CF3)][cisHyp](X106)[Ac5c][NMeL][NMeD]-Piperidide; lactam N-11) :: 7.43

State its pIC50 for this compound: CC[C@H](C)[C@@H]1NC(=O)[C@H](CC(C)C)N(C)C(=O)C[C@@H](C(=O)N2CCCCC2)N(C)C(=O)[C@H](CC(C)C)N(C)C(=O)C2(CCCC2)NC(=O)[C@@H]2C[C@@H](OCc3cccc(OC)c3)CN2C(=O)[C@H](CCc2ccc(C(F)(F)F)c(F)c2)NC(=O)CN(C)C(=O)[C@H](CC2CCCCC2)N(C)C(=O)CN(C)C(=O)CN(C)C1=O [US20240148821, Compound 2131] ([NMeL]I[Sar][Sar][NMeCha][Sar][hPhe(3-F,4-CF3)][Hyp](X94)[Ac5c][NMeL][NMeD]-Piperidide; lactam N-11)
8.01

----------
- studyTarget: GTPase KRas (G12D) and Son of Sevenless Homolog 1 (SOS) (Homo sapiens, UniProt P01116, G12D)
- method: AlphaScreen Assay
Numbered stars: 1 amine (or outer) side, 2 acyl side, 3 side chain; on linkers, the order of the positions; unused ones are H or OH. Bridge positions count the residues as written; N and C are the ends. Square brackets hold non-standard residues; d marks the D form. Peptide text beside a SMILES is read from it. * marks the point of attachment. hPhe(3-Cl-4-CF3) = N[C@@H](CCc1ccc(C(F)(F)F)c(Cl)c1)C(=O)O; hPhe(3-F,4-CF3) = N[C@@H](CCc1ccc(C(F)(F)F)c(F)c1)C(=O)O; X44 = O=C([C@H](CCc1ccc2cccnc2c1)N[*:1])[*:2]; NMeGly(cPent) = CN[C@H](C(=O)O)C1CCCC1; NMeGly(cBu) = CN[C@H](C(=O)O)C1CCC1; NMeCha = CN[C@@H](CC1CCCCC1)C(=O)O; cisHyp = O=C(O)[C@@H]1C[C@H](O)CN1; X108 = O=C(CN(c1ccsc1)[*:1])[*:2]; NMeChg = CN[C@H](C(=O)O)C1CCCCC1; NMeD = CN[C@@H](CC(=O)O)C(=O)O; NMeL = CN[C@@H](CC(C)C)C(=O)O; NMeA = CN[C@@H](C)C(=O)O; Piperidide = C1CCN(*)CC1; Ac5c = NC1(C(=O)O)CCCC1; Aze = O=C(O)[C@@H]1CCN1; Nlys = NCCCCNCC(=O)O; Meb = Cc1ccc(C*)cc1; Sar = CNCC(=O)O
Recorded IC50, one value per entry.
Give the quantity in nM, number only.

CC[C@H](C)[C@@H]1NC(=O)[C@H](CC(C)C)N(C)C(=O)C[C@@H](C(=O)N2CCCCC2)N(C)C(=O)[C@H](CC(C)C)N(C)C(=O)C2(CCCC2)NC(=O)[C@@H]2C[C@H](OCc3ccc(C)cc3)CN2C(=O)[C@H](CCc2ccc(C(F)(F)F)c(F)c2)NC(=O)CN(C)C(=O)[C@H](CC2CCCCC2)N(C)C(=O)CN(C)C(=O)CN(C)C1=O [US20240148821, Compound 2140] ([NMeL]I[Sar][Sar][NMeCha][Sar][hPhe(3-F,4-CF3)][cisHyp](Meb)[Ac5c][NMeL][NMeD]-Piperidide; lactam N-11) :: 32
CC[C@H](C)[C@@H]1NC(=O)[C@H](CC(C)C)N(C)C(=O)C[C@@H](C(=O)N2CCCCC2)N(C)C(=O)[C@H](C2CCCC2)N(C)C(=O)C2(CCCC2)NC(=O)[C@@H]2CCCN2C(=O)[C@H](CCc2ccc3cccnc3c2)NC(=O)CN(C)C(=O)[C@H](CC2CCCCC2)N(C)C(=O)[C@@H]2CCN2C(=O)[C@H](C)N(C)C1=O [US20240148821, Compound 2077] ([NMeL]I[NMeA][Aze][NMeCha][Sar][X44]P[Ac5c][NMeGly(cPent)][NMeD]-Piperidide; lactam N-11) :: 47
CC[C@H](C)[C@@H]1NC(=O)[C@H](C)N(C)C(=O)C[C@@H](C(=O)N2CCCCC2)N(C)C(=O)[C@H](C2CCC2)N(C)C(=O)C2(CCCC2)NC(=O)CN(c2ccsc2)C(=O)[C@H](CCc2ccc(C(F)(F)F)c(Cl)c2)NC(=O)CN(C)C(=O)[C@H](CC2CCCCC2)N(C)C(=O)CN(C)C(=O)CN(C)C1=O [US20240148821, Compound 2149] ([NMeA]I[Sar][Sar][NMeCha][Sar][hPhe(3-Cl-4-CF3)][X108][Ac5c][NMeGly(cBu)][NMeD]-Piperidide; lactam N-11) :: 4

Field: next compound
State its IC50 for this compound: CC[C@H](C)[C@@H]1NC(=O)[C@H](CC(C)C)N(C)C(=O)C[C@@H](C(=O)N2CCCCC2)N(C)C(=O)[C@H](C2CCCCC2)N(C)C(=O)C2(CCCC2)NC(=O)CN(CCCCN)C(=O)[C@H](CCc2ccc(C(F)(F)F)c(Cl)c2)NC(=O)CN(C)C(=O)[C@H](CC2CCCCC2)N(C)C(=O)CN(C)C(=O)CN(C)C1=O [US20240148821, Compound 2186] ([NMeL]I[Sar][Sar][NMeCha][Sar][hPhe(3-Cl-4-CF3)][Nlys][Ac5c][NMeChg][NMeD]-Piperidide; lactam N-11)
7.5
